ASSAYED_SYSTEM: Recombinant human neprilysin (rhNEP; R&D Systems) (human, UniProt P08473 52-750)
Sequence (P08473 52-750 limits assumed): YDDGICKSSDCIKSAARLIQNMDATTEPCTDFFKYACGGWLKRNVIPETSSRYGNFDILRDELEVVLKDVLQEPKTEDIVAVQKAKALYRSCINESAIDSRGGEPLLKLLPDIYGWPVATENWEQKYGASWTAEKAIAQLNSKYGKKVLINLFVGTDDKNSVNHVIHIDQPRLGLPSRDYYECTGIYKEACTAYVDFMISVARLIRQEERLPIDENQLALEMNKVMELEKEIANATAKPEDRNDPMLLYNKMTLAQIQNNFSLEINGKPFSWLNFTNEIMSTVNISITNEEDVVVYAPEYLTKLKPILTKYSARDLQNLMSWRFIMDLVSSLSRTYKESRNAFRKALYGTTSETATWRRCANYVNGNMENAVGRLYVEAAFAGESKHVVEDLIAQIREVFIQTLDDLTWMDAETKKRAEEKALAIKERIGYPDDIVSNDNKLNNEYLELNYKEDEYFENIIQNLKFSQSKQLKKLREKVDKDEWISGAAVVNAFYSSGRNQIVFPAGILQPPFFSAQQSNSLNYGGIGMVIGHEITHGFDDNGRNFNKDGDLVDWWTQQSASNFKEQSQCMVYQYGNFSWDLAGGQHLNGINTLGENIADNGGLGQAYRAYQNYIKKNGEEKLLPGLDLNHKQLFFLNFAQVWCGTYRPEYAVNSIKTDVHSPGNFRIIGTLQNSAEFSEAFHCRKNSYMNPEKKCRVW
MEASUREMENT_PROTOCOL: cell-based or functional assay
Starred links: 1 amine or outer side, 2 acyl side, 3 side chain; linkers in the order of their positions; H or OH if unused. Positions of bridges follow the written chain, without caps; N, C: chain ends. No end group written: not given here. γGlu = O=C(O)[C@H](CCC(=O)[*:2])N[*:1]; C18d = not defined here; AEEA = NCCOCCOCC(=O)O
EXPERIMENTAL_READOUT: Remaining of parent after 90 min (%)

{"BINDER": "{C18d-γGlu-γGlu-AEEA-AEEA-AEEA-AEEA}-YKGAQKKGGSQGCFGLPLDRIGSLSGLGC (disulfide 13-29 (inferred); reading uncertain; also: printed as [N-terminal(C18d-2xgGlu-4xOEG), des1-8, 13Q, 17G, 19Q, 25P, 32L]-hCNP37) [Compound ID 9435, [N-terminal(C18d-2xgGlu-4xOEG), des1-8, 13Q, 17G, 19Q, 25P, 32L]-hCNP37]", "Remaining of parent after 90 min (%)": "93.2%"}
{"BINDER": "{C18d-γGlu-γGlu-γGlu-γGlu-γGlu-AEEA-AEEA-AEEA-AEEA}-ARKYKGAQKKGLSQGCFGLPLDRIGSLSGLGC (disulfide 16-32 (inferred); reading uncertain; also: printed as [N-terminal(C18d-5xgGlu-4xOEG), des1-5, 13Q, 19Q, 25P, 32L]-hCNP37) [Compound ID 9407, [N-terminal(C18d-5xgGlu-4xOEG), des1-5, 13Q, 19Q, 25P, 32L]-hCNP37]", "Remaining of parent after 90 min (%)": "96.6%"}

Query (binder): {C18d-γGlu-γGlu-γGlu-γGlu-γGlu}-QEHPQARKYKGAQKKGLSSGCFGLPLDRIGSLSGLGC (disulfide 21-37 (inferred); reading uncertain) [Compound ID 9482, [N-terminal(C18d-5xgGlu), 5Q, 13Q, 19S, 25P, 32L]-hCNP37] ; field requested: Remaining of parent after 90 min (%)
96.3%
